- System: Escherichia coli
- assay_method_text: Antimicrobial activity against Escherichia coli ATCC […] assessed as growth inhibition after 24-48 hr by broth microdilution technique
- Format: functional
Activity calls are given as the source filed them. The rule behind the calls is not given here.
reported_endpoint: MIC

Here are 4 molecules together with their reported answers.
molecule: COC(C)(CC1O[C@H]2[C@H]3OC(C)(C)O[C@H]3O[C@H]12)OC (stereo partly specified)
target_or_test_system: Escherichia coli
reported_endpoint: MIC
result: inactive
--
molecule: COC(C)(CC1O[C@H]2[C@H]3O[C@@H](C(Cl)(Cl)Cl)O[C@H]3O[C@H]12)OC (stereo partly specified)
target_or_test_system: Escherichia coli
reported_endpoint: MIC
result: 500 µg/mL
--
molecule: COC(C)(CC1O[C@H]2[C@H]3O[C@H](C(Cl)(Cl)Cl)O[C@H]3O[C@H]12)OC (stereo partly specified)
target_or_test_system: Escherichia coli
reported_endpoint: MIC
result: 250 µg/mL
--
molecule: COC(C)(CC1O[C@@H]2[C@H]3OC(C)(C)O[C@H]3O[C@H]12)OC (stereo partly specified)
target_or_test_system: Escherichia coli
reported_endpoint: MIC
result: inactive

// fetch Escherichia coli MIC for COC(C)(CC1O[C@@H]2[C@H]3O[C@@H](C(Cl)(Cl)Cl)O[C@H]3O[C@H]12)OC (stereo partly specified)
500 µg/mL

// fetch Escherichia coli MIC for CC(=O)Cc1ccc(C=O)o1
500 µg/mL
